System: HeLa Kyoto
Assay: solubility change mitosis vs G1/S (difference of NP-40 vs SDS log2 ratios) (log2 ratio difference); higher = more soluble in mitosis
RECORDED_METRIC: solubility change mitosis (log2)
Give your answer as a number; write no unit.

Incoming: Hello, I am looking for reported solubility change mitosis (log2) with HeLa Kyoto for MEAKTLGTVTPRKPVLSVSARKIKDNAADWHNLILKWETLNDAGFTTANNIANLKISLLNKDKIELDSSSPASKENEEKVCLEYNEELEKLCEELQATLDGLTKIQVKMEKLSSTTKGICELENYHYGEESKRPPLFHTWPTTHFYEVSHKLLEMYRKELLLKRTVAKELAHTGDPDLTLSYLSMWLHQPYVESDSRLHLESMLLETGHRAL [CINP] . Could you help?
Outgoing: 0.525

---

System: HeLa Kyoto
Test: thermal stability score vs G1/S (z-score of summed log2 fold changes over temperatures); higher = more thermally stable than in G1/S
Conditions: cell cycle stage: early G1 (4.5 h after nocodazole release)
RECORDED_METRIC: thermal stability score
Give your answer as a number; write no unit.

Incoming: # get_value(readout='thermal stability score', item= MASIWVGHRGTVRDYPDFSPSVDAEAIQKAIRGIGTDEKMLISILTERSNAQRQLIVKEYQAAYGKELKDDLKGDLSGHFEHLMVALVTPPAVFDAKQLKKSMKGAGTNEDALIEILTTRTSRQMKDISQAYYTVYKKSLGDDISSETSGDFRKALLTLADGRRDESLKVDEHLAKQDAQILYKAGENRWGTDEDKFTEILCLRSFPQLKLTFDEYRNISQKDIVDSIKGELSGHFEDLLLAIVNCVRNTPAFLAERLHRALKGIGTDEFTLNRIMVSRSEIDLLDIRTEFKKHYGYSLYSAIKSDTSGDYEITLLKICGGDD [ANXA3] )
Outgoing: -0.635

---

Test system: HeLa Kyoto
Assay: solubility in G1/S (NP-40 vs SDS abundance) (log2 ratio); higher = more soluble
Conditions: cell cycle stage: G1/S
RECORDED_METRIC: solubility in G1/S (log2)
Give your answer as a number; write no unit.

Incoming: # get_value(readout='solubility in G1/S (log2)', item= MGSRVSREDFEWVYTDQPHADRRREILAKYPEIKSLMKPDPNLIWIIIMMVLTQLGAFYIVKDLDWKWVIFGAYAFGSCINHSMTLAIHEIAHNAAFGNCKAMWNRWFGMFANLPIGIPYSISFKRYHMDHHRYLGADGVDVDIPTDFEGWFFCTAFRKFIWVILQPLFYAFRPLFINPKPITYLEVINTVAQVTFDILIYYFLGIKSLVYMLAASLLGLGLHPISGHFIAEHYMFLKGHETYSYYGPLNLLTFNVGYHNEHHDFPNIPGKSLPLVRKIAAEYYDNLPHYNSWIKVLYDFVMDDTISPYSRMKRHQKGEMVLE [DEGS1] )
Outgoing: -0.186

---

The sequences listed here are annotated with their thermal stability score.
System: HeLa Kyoto
Experiment: thermal stability score vs G1/S (z-score of summed log2 fold changes over temperatures); higher = more thermally stable than in G1/S
Conditions: cell cycle stage: mitosis
Give your answer as a number; write no unit.

Incoming: # get_value(readout='thermal stability score', item= MVDKKLVVVFGGTGAQGGSVARTLLEDGTFKVRVVTRNPRKKAAKELRLQGAEVVQGDQDDQVIMELALNGAYATFIVTNYWESCSQEQEVKQGKLLADLARRLGLHYVVYSGLENIKKLTAGRLAAAHFDGKGEVEEYFRDIGVPMTSVRLPCYFENLLSHFLPQKAPDGKSYLLSLPTGDVPMDGMSVSDLGPVVLSLLKMPEKYVGQNIGLSTCRHTAEEYAALLTKHTRKVVHDAKMTPEDYEKLGFPGARDLANMFRFYALRPDRDIELTLRLNPKALTLDQWLEQHKGDFNLL [NMRAL1] )
Outgoing: 3.59

Incoming: # get_value(readout='thermal stability score', item= MANRTVKDAHSIHGTNPQYLVEKIIRTRIYESKYWKEECFGLTAELVVDKAMELRFVGGVYGGNIKPTPFLCLTLKMLQIQPEKDIIVEFIKNEDFKYVRMLGALYMRLTGTAIDCYKYLEPLYNDYRKIKSQNRNGEFELMHVDEFIDELLHSERVCDIILPRLQKRYVLEEAEQLEPRVSALEEDMDDVESSEEEEEEDEKLERVPSPDHRRRSYRDLDKPRRSPTLRYRRSRSRSPRRRSRSPKRRSPSPRRERHRSKSPRRHRSRSRDRRHRSRSKSPGHHRSHRHRSHSKSPERSKKSHKKSRRGNE [PRPF38A] )
Outgoing: 1.13

---

System: HeLa Kyoto
Assay: solubility in G1/S (NP-40 vs SDS abundance) (log2 ratio); higher = more soluble
Settings: cell cycle stage: G1/S
RECORDED_METRIC: solubility in G1/S (log2)
Give your answer as a number; write no unit.

Solved entries:
MAVATAAAVLAALGGALWLAARRFVGPRVQRLRRGGDPGLMHGKTVLITGANSGLGRATAAELLRLGARVIMGCRDRARAEEAAGQLRRELRQAAECGPEPGVSGVGELIVRELDLASLRSVRAFCQEMLQEEPRLDVLINNAGIFQCPYMKTEDGFEMQFGVNHLGHFLLTNLLLGLLKSSAPSRIVVVSSKLYKYGDINFDDLNSEQSYNKSFCYSRSKLANILFTRELARRLEGTNVTVNVLHPGIVRTNLGRHIHIPLLVKPLFNLVSWAFFKTPVEGAQTSIYLASSPEVEGVSGRYFGDCKEEELLPKAMDESVARKLWDISEVMVGLLK [RDH14]: -0.158
MAESDWDTVTVLRKKGPTAAQAKSKQAILAAQRRGEDVETSKKWAAGQNKQHSITKNTAKLDRETEELHHDRVTLEVGKVIQQGRQSKGLTQKDLATKINEKPQVIADYESGRAIPNNQVLGKIERAIGLKLRGKDIGKPIEKGPRAK [EDF1]: 0.119

Now consider a different sequence.
Incoming: Hello, I am looking for reported solubility in G1/S (log2) with HeLa Kyoto for MPRKRKCDLRAVRVGLLLGGGGVYGSRFRFTFPGCRALSPWRVRVQRRRCEMSTMFADTLLIVFISVCTALLAEGITWVLVYRTDKYKRLKAEVEKQSKKLEKKKETITESAGRQQKKKIERQEEKLKNNNRDLSMVRMKSMFAIGFCFTALMGMFNSIFDGRVVAKLPFTPLSYIQGLSHRNLLGDDTTDCSFIFLYILCTMSIRQNIQKILGLAPSRAATKQAGGFLGPPPPSGKFS [TMCO1] . Could you help?
Outgoing: -0.0501

---

Tested on: HeLa Kyoto
Assay: melting temperature (median over replicates), in situ; higher = more thermally stable
Details: cell cycle stage: mitosis
RECORDED_METRIC: melting temperature (°C)
Your answer is read as °C, so omit the unit and give the number.

MSYTPGVGGDPAQLAQRISSNIQKITQCSVEIQRTLNQLGTPQDSPELRQQLQQKQQYTNQLAKETDKYIKEFGSLPTTPSEQRQRKIQKDRLVAEFTTSLTNFQKVQRQAAEREKEFVARVRASSRVSGSFPEDSSKERNLVSWESQTQPQVQVQDEEITEDDLRLIHERESSIRQLEADIMDINEIFKDLGMMIHEQGDVIDSIEANVENAEVHVQQANQQLSRAADYQRKSRKTLCIIILILVIGVAIISLIIWGLNH [STX7]: 55
MAETEALSKLREDFRMQNKSVFILGASGETGRVLLKEILEQGLFSKVTLIGRRKLTFDEEAYKNVNQEVVDFEKLDDYASAFQGHDVGFCCLGTTRGKAGAEGFVRVDRDYVLKSAELAKAGGCKHFNLLSSKGADKSSNFLYLQVKGEVEAKVEELKFDRYSVFRPGVLLCDRQESRPGEWLVRKFFGSLPDSWASGHSVPVVTVVRAMLNNVVRPRDKQMELLENKAIHDLGKAHGSLKP [HTATIP2]: 50.2
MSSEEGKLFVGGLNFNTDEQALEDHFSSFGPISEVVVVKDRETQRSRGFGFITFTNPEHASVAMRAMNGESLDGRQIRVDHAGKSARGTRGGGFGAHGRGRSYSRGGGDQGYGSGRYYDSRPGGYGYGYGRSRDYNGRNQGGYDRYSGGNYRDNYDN [RBM3]: 52.7

Incoming: Hello, I am looking for reported melting temperature with HeLa Kyoto for MAMRQTPLTCSGHTRPVVDLAFSGITPYGYFLISACKDGKPMLRQGDTGDWIGTFLGHKGAVWGATLNKDATKAATAAADFTAKVWDAVSGDELMTLAHKHIVKTVDFTQDSNYLLTGGQDKLLRIYDLNKPEAEPKEISGHTSGIKKALWCSEDKQILSADDKTVRLWDHATMTEVKSLNFNMSVSSMEYIPEGEILVITYGRSIAFHSAVSLDPIKSFEAPATINSASLHPEKEFLVAGGEDFKLYKYDYNSGEELESYKGHFGPIHCVRFSPDGELYASGSEDGTLRLWQTVVGKTYGLWKCVLPEEDSGELAKPKIGFPETTEEELEEIASENSDCIFPSAPDVKA [STRAP] . Could you help?
Outgoing: 52.2

Incoming: Hello, I am looking for reported melting temperature with HeLa Kyoto for MATETVELHKLKLAELKQECLARGLETKGIKQDLIHRLQAYLEEHAEEEANEEDVLGDETEEEETKPIELPVKEEEPPEKTVDVAAEKKVVKITSEIPQTERMQKRAERFNVPVSLESKKAARAARFGISSVPTKGLSSDNKPMVNLDKLKERAQRFGLNVSSISRKSEDDEKLKKRKERFGIVTSSAGTGTTEDTEAKKRKRAERFGIA [SARNP] . Could you help?
Outgoing: 54.3

Incoming: Hello, I am looking for reported melting temperature with HeLa Kyoto for MAAVSVYAPPVGGFSFDNCRRNAVLEADFAKRGYKLPKVRKTGTTIAGVVYKDGIVLGADTRATEGMVVADKNCSKIHFISPNIYCCGAGTAADTDMTTQLISSNLELHSLSTGRLPRVVTANRMLKQMLFRYQGYIGAALVLGGVDVTGPHLYSIYPHGSTDKLPYVTMGSGSLAAMAVFEDKFRPDMEEEEAKNLVSEAIAAGIFNDLGSGSNIDLCVISKNKLDFLRPYTVPNKKGTRLGRYRCEKGTTAVLTEKITPLEIEVLEETVQTMDTS [PSMB7] . Could you help?
Outgoing: 64.5

Incoming: Hello, I am looking for reported melting temperature with HeLa Kyoto for MALPHDSNETSYLLPPNNEDWGRQTIPDFVYGQKDLMAEGIQWPRNAPGIPDALPQSPFDAALCSAWKQRVELGLFRYRLRELQTQILPGAVGFVAQLNVERGVQRRPPQTIKSVRQAFDPVQFNFNKIRPGEVLFRLHREPDLPGTLLQEDILVVINVSPLEWGHVLLVPEPARQLPQRLLPGALRAGIEAVLLSLHPGFRVGFNSLGGLASVNHLHLHGYYLAHRLPVEQAPSEPLDPGGHLHLLQDLPAPGFLFYTRGPGPDLESLISRVCRATDYLTDHEIAHNLFVTRGAPPGKTSPSSALTGVRVILWARKSSFGIKDGEAFNVALCELAGHLPVKTSQDFSSLTEAAAVALIQDCRLPPSQAEDVQAALVALMSQEEQ [GDPGP1] . Could you help?
Outgoing: 51

Incoming: Hello, I am looking for reported melting temperature with HeLa Kyoto for MGKVRGLRARVHQAAVRPKGEAAPGPAPPAPEATPPPASAAGKDWAFINTNIFARTKIDPSALVQKLELDVRSVTSVRRGEAGSSARSVPSIRRGAEAKTVLPKKEKMKLRREQWLQKIEAIKLAEQKHREERRRRATVVVGDLHPLRDALPELLGLEAGSRRQARSRESNKPRPSELSRMSAAQRQQLLEEERTRFQELLASPAYRASPLVAIGQTLARQMQLEDGGQL [FAM207A] . Could you help?
Outgoing: 48.5

Incoming: Hello, I am looking for reported melting temperature with HeLa Kyoto for MSAFSEAALEKKLSELSNSQQSVQTLSLWLIHHRKHSRPIVTVWERELRKAKPNRKLTFLYLANDVIQNSKRKGPEFTKDFAPVIVEAFKHVSSETDESCKKHLGRVLSIWEERSVYENDVLEQLKQALYGDKKPRKRTYEQIKVDENENCSSLGSPSEPPQTLDLVRALQDLENAASGDAAVHQRIASLPVEVQEVSLLDKITDKESGERLSKMVEDACMLLADYNGRLAAEIDDRKQLTRMLADFLRCQKEALAEKEHKLEEYKRKLARVSLVRKELRSRIQSLPDLSRLPNVTGSHMHLPFAGDIYSED [RPRD1A] . Could you help?
Outgoing: 49.5

Incoming: Hello, I am looking for reported melting temperature with HeLa Kyoto for MLKPALEPRGGFSFENCQRNASLERVLPGLKVPHARKTGTTIAGLVFQDGVILGADTRATNDSVVADKSCEKIHFIAPKIYCCGAGVAADAEMTTRMVASKMELHALSTGREPRVATVTRILRQTLFRYQGHVGASLIVGGVDLTGPQLYGVHPHGSYSRLPFTALGSGQDAALAVLEDRFQPNMTLEAAQGLLVEAVTAGILGDLGSGGNVDACVITKTGAKLLRTLSSPTEPVKRSGRYHFVPGTTAVLTQTVKPLTLELVEETVQAMEVE [PSMB10] . Could you help?
Outgoing: 52.6

FYI, the data here is from the supplement of paper PMC5998384.
